assay: chemical genetic growth profiling, strain panel (AID 1159580);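 note: tested at 20 µM; growth read once vehicle control cultures reached saturation at 30 °C; 1 = growth at the plate median or of vehicle wells; lower values mean less growth of the strain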; conditions: S. cerevisiae deletion strains, growth OD, locus YOR061W, strain CKA2
The whole screen tested about 5,500 compounds, of which about 2,000 (36%) were called active. Not shown: some 18% with an inconclusive outcome. Cut-off read from the data, not from the text of the source: active = normalized growth mostly below about 0.91 (no sharp cut-off); inconclusive = no clear call, values can overlap the other calls; inactive = mostly above about 0.92. This is one part of the list.
Hello, when you answer, please use one of the following outcomes: active, inactive

Record lookup: outcome of this test for O=c1c(O)c(-c2ccc(O)c(O)c2)oc2cc(O)ccc12 ?
inactive

Record lookup: outcome of this test for COc1ccc(C(=O)c2ccccc2)c(O)c1O ?
inactive

Record lookup: outcome of this test for O=c1c(-c2ccccc2)c(O)c2cccc3c4c(n1c23)CCCC4 ?
active

Record lookup: outcome of this test for N#C/C(=N/Nc1cccc(C(F)(F)F)c1)C(=O)c1csc(-c2cccnc2)n1 ?
inactive

Record lookup: outcome of this test for CCOc1ccc(NC(C)=O)cc1 ?
inactive

---
Record lookup: outcome of this test for CC(=O)[O][Hg][c]1ccccc1 ?
active

Record lookup: outcome of this test for CCOc1ccc(C(=O)c2cc(O)c(OC)c(OC)c2O)cc1 ?
inactive

Record lookup: outcome of this test for O=C(O)[C@H](O)[C@@](O)(Cc1ccc(O)cc1)C(=O)O ?
inactive

Record lookup: outcome of this test for C[C@]12CCC(=O)C=C1CCC1C2[C@@H](O)C[C@@]2(C)C1CC[C@]2(O)C(=O)COC(=O)CCC(=O)O (stereo partly specified) ?
inactive

Record lookup: outcome of this test for COC1(C)CCC2OC2(C)CCC2C1CC2(C)C (stereo unspecified) ?
inactive

Record lookup: outcome of this test for C=C(C)[C@@H]1CC[C@]2(CO)CC[C@]3(C)[C@H](CCC4[C@@]5(C)CC[C@H](O)C(C)(C)C5CC[C@]43C)C12 (stereo partly specified) ?
inactive

---

test: chemical genetic growth profiling, strain panel (AID 1159580); conditions: S. cerevisiae deletion strains, growth OD, locus YDL192W, strain arf1, hits give low values
In all, about 5,500 compounds went through this assay and about 2,000 (36%) were called active. About 18% were inconclusive and are not listed. The list shows a part of the results.
Measurement type: normalized growth
Lab note: write the figure by itself, no unit.

Please review the entries below; each comes with its answer.
Lab book: normalized growth of c1ccc([C@H]2CN3CCSC3=N2)cc1 noted as 1

Lab book: normalized growth of COc1cc(-c2coc3cc(O[C@@H]4O[C@H](CO)[C@@H](O)[C@H](O)[C@H]4O)c(OC)c(O)c3c2=O)cc(O)c1OC noted as 1.02

Lab book: normalized growth of O=c1oc2c(O)c(O)cc3c(=O)oc4c(O)c(O)cc1c4c23 noted as 0.558

Lab book: normalized growth of CC(=O)O[C@H]1CC[C@]2(C)C3CC(=O)[C@]4(C)C(C(C)=O)=CCC4C3CC[C@H]2C1 (some centres undefined) noted as 0.978

Lab book: normalized growth of CC(=O)NO noted as 0.989

Lab book: normalized growth of COc1c2ccoc2cc2oc(C)cc(=O)c12 noted as 0.945

Lab book: normalized growth of CC(=O)Oc1cccc2c1C(=O)c1c(OC(C)=O)cc(C(=O)O)cc1C2=O noted as 0.175

Lab book: normalized growth of CC1(C)C(=O)[C@@H]2O[C@@H]2[C@@]2(C)C1CC(=O)[C@]1(C)C2CC[C@@]2(C)[C@H](c3ccoc3)OC(=O)[C@H]3O[C@]321 (some centres undefined) noted as 0.979

Lab book: normalized growth of NC(=O)NO noted as 1.01

Lab book: normalized growth of COc1c2occc2c(OC)c2c(=O)cc(C)oc12 noted as 1.01

---
Lab book: normalized growth of CCC1(CC)C(=O)C=CNC1=O noted as 1.01

Lab book: normalized growth of NC[C@H]1O[C@H](O[C@H]2C(O[C@@H]3O[C@H](CO)[C@@H](O)[C@H]3O)[C@@H](O)[C@H](N)C[C@@H]2N)[C@H](N)[C@@H](O)[C@@H]1O (some centres undefined) noted as 0.996

Lab book: normalized growth of C1CCC(C(CC2CCCCN2)C2CCCCC2)CC1 (centres undefined) noted as 0.0725

Lab book: normalized growth of CC[C@H]1CN2CCc3cc(OC)c(OC)cc3C2C[C@@H]1CC1NCCc2cc(OC)c(OC)cc21 (some centres undefined) noted as 0.987

---

assay: chemical genetic growth profiling, strain panel (AID 1159580); conditions: S. cerevisiae deletion strains, growth OD, locus YGL173C, strain kem1, hits give low values
The whole screen tested about 5,500 compounds, of which about 2,000 (36%) were called active. Another 18% or so got no clear call; they are omitted. The list shows a part of the results.
Listed here: items and their measured normalized growth.
Lab note: write the figure by itself, no unit.

Please review the entries below; each comes with its answer.
Lab book: normalized growth of C=C(C)[C@@H]1CC[C@]2(CO)CC[C@]3(C)[C@H](CCC4[C@@]5(C)CC[C@H](O)C(C)(C)C5CC[C@]43C)C12 (stereo not given in full) noted as 1.01

Lab book: normalized growth of CN1C(=O)CCS(=O)(=O)C1c1ccc(Cl)cc1 (stereo not given) noted as 0.953

Lab book: normalized growth of Cc1onc(-c2ccccc2)c1C(=O)NC1C(=O)N2[C@@H]1SC(C)(C)[C@@H]2C(=O)O (stereo not given in full) noted as 1.01

---
Lab book: normalized growth of OC(c1cc(C(F)(F)F)nc2c(C(F)(F)F)cccc12)C1CCCCN1 (stereo not given) noted as 1.02

Lab book: normalized growth of O=c1c(O)c(-c2ccc(O)c(O)c2)oc2cc(O)ccc12 noted as 0.938

---

experiment: chemical genetic growth profiling, strain panel (AID 1159580);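 note: tested at 20 µM; growth read once vehicle control cultures reached saturation at 30 °C; 1 = growth at the plate median or of vehicle wells; lower values mean less growth of the strain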; settings: S. cerevisiae deletion strains, growth OD, locus YOR069W, strain VPS5
Among all 5,500 compounds or so, about 2,000 (36%) were called active. Another 18% or so got no clear call; they are omitted. Cut-off read from the data, not from the text of the source: active = normalized growth mostly below about 0.91 (no sharp cut-off); inconclusive = no clear call, values can overlap the other calls; inactive = mostly above about 0.92. This is one part of the list.
Hello, when you answer, please use one of the following outcomes: y for active, n for inactive

Known results for compounds:
Record lookup: outcome of this test for CC(=O)N[C@@H](Cc1c[nH]c2ccccc12)C(=O)O ?
n

Record lookup: outcome of this test for CC1(C)C(=O)[C@@H]2O[C@@H]2[C@@]2(C)C1CC(=O)[C@]1(C)C2CC[C@@]2(C)[C@H](c3ccoc3)OC(=O)[C@H]3O[C@]321 (stereo partly specified) ?
n

Record lookup: outcome of this test for CCC1(CC)C(=O)C=CNC1=O ?
n

Record lookup: outcome of this test for CO[C@@]1(NC(=O)Cc2cccs2)C(=O)N2C(C(=O)O)=C(COC(N)=O)CS[C@@H]21 ?
n

Record lookup: outcome of this test for CCCCCCCCCCCCCCCCCCOCC(O)CO (stereo unspecified) ?
n

---
Record lookup: outcome of this test for CCOc1cccc(C(=O)c2ccc(O)c(O)c2O)c1 ?
y

Record lookup: outcome of this test for O=C(O)c1cc(=O)c2c(Cl)cc(Cl)cc2[nH]1 ?
n

Record lookup: outcome of this test for O=C(O)c1cc(=O)c2cccc(O)c2[nH]1 ?
n

Record lookup: outcome of this test for COc1cc2cc3c4cc(OC)c(OC)cc4cc[n+]3c(C)c2cc1OC ?
n

Record lookup: outcome of this test for NCCc1c[nH]c2ccccc12 ?
n

Record lookup: outcome of this test for COc1cnc(NS(=O)(=O)c2ccc(N)cc2)nc1 ?
n

---

Listed here: items and their measured normalized growth.
assay: chemical genetic growth profiling, strain panel (AID 1159580);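 note: tested at 20 µM; growth read once vehicle control cultures reached saturation at 30 °C; 1 = growth at the plate median or of vehicle wells; lower values mean less growth of the strain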; conditions: S. cerevisiae deletion strains, growth OD, locus YNL307C, strain MCK1, hits give low values
In all, about 5,500 compounds went through this assay and about 2,000 (36%) were called active. Another 18% or so got no clear call; they are omitted. The list shows a part of the results.
Lab note: write the figure by itself, no unit.

Please review the entries below; each comes with its answer.
Lab book: normalized growth of CC(=O)OCC1=C(C(=O)O)N2C(=O)[C@@H](NC(=O)CCCC(N)C(=O)O)C2SC1 (stereo partly specified) noted as 1.01

Lab book: normalized growth of COc1cc(-c2oc3cc(O)ccc3c(=O)c2O)cc(OC)c1OC noted as 1.02

Lab book: normalized growth of CCOC([O-])=Nc1c[n+](N2CCOCC2)no1 noted as 1.01

Lab book: normalized growth of NC(=O)NO noted as 1

Lab book: normalized growth of CCCc1nc2c(C)cc(-c3nc4ccccc4n3C)cc2n1Cc1ccc(-c2ccccc2C(=O)O)cc1 noted as 1.01

Let us move to another entry and its normalized growth.
Lab book: normalized growth of CC(=O)NO noted as 0.978

---

assay: chemical genetic growth profiling, strain panel (AID 1159580);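 note: tested at 20 µM; growth read once vehicle control cultures reached saturation at 30 °C; 1 = growth at the plate median or of vehicle wells; lower values mean less growth of the strain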; settings: S. cerevisiae deletion strains, growth OD, locus YKR091W, strain srl3
Hit rate of the full screen: of about 5,500 compounds, about 2,000 (36%) were called active. Another 18% or so got no clear call; they are omitted. Rule as the data show it: active = normalized growth mostly below about 0.91 (no sharp cut-off); inconclusive = no clear call, values can overlap the other calls; inactive = mostly above about 0.92. Some of the results follow. Where a SMILES comes first, the peptide text is derived from it. Bridges are numbered along the chain shown (N, C = ends). [ ]: non-standard residue; d: D form. The star is where a group is joined. Octanoyl(6-Me) = CCC(C)CCCCC(=O)*; Dab = NCC[CH](N)C(=O)O
Hello, when you answer, please use one of the following outcomes: active, inactive

Record lookup: outcome of this test for CC(=O)Oc1cccc2c1C(=O)c1c(OC(C)=O)cc(C(=O)O)cc1C2=O ?
inactive

---
Record lookup: outcome of this test for NC(=O)NO ?
inactive

Record lookup: outcome of this test for CCC(C)CCCCC(=O)NC(CCN)C(=O)NC(C(=O)NC(CCN)C(=O)NC1CCNC(=O)C(C(C)O)NC(=O)C(CCN)NC(=O)C(CCN)NC(=O)C(CC(C)C)NC(=O)C(Cc2ccccc2)NC(=O)C(CCN)NC1=O)C(C)O (centres undefined) ({Octanoyl(6-Me)}-[Dab]T[Dab][Dab][Dab]FL[Dab][Dab]T; lactam 4-C; configuration not given here) ?
inactive

Record lookup: outcome of this test for CCNc1nc(Cl)nc(NCC)n1 ?
inactive

Record lookup: outcome of this test for CO[C@@]1(NC(=O)Cc2cccs2)C(=O)N2C(C(=O)O)=C(COC(N)=O)CS[C@@H]21 ?
inactive

Record lookup: outcome of this test for CC(=O)OC1CCC2(C)C3CC(=O)C4(C)C(CC5OC6(CCC(C)CO6)[C@@H](C)C54)C3CC[C@H]2C1 (some centres undefined) ?
inactive

Record lookup: outcome of this test for CC[C@H]1OC(=O)[C@H](C)[C@@H](O[C@H]2C[C@@](C)(OC)[C@@H](O)[C@H](C)O2)[C@H](C)[C@@H](O[C@@H]2O[C@H](C)C[C@H](N(C)C)[C@H]2O)[C@](C)(O)C[C@@H](C)[C@@H]2N[C@@H](COCCOC)O[C@H]([C@H]2C)[C@]1(C)O ?
inactive

// data source = PubChem BioAssay AID1159580
